Provenance of the data: patent US20250026849A1

# assayed.target: T1, CD123 (Homo sapiens (Human), UniProt P26951 19-305, limits assumed)
# T1 construct: also called CD123-Signal
# T1 sequence: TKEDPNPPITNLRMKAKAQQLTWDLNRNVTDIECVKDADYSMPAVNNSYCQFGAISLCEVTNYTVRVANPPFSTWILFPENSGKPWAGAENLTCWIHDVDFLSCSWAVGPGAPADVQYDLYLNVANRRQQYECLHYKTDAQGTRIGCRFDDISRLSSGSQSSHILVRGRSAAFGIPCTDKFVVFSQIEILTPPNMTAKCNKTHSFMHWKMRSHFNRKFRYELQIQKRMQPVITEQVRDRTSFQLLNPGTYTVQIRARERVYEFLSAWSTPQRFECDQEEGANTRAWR
# test.description: ELISA, format not described
# Set-up: unit not given here
readout.name: ELISA_avg
Please reply with the value in numeric form only.

Reference set, count: 2
[[record]]
binder = "D domain SEQ ID NO: 769 (designed binder) MGSWFEFVDRLEAIEMRLFALGGSEAELAAFEKEIAAFESELQAYKGKGNPEVELLRWRAAMIRYDLQAYRHN"
readout_name = "ELISA_avg"
test_result = 7.1

[[record]]
binder = "D domain SEQ ID NO: 686 (designed binder) MGSWEEFYYRLHAIDNRLWALGGSEAELAYFEWHIADFELELQDYKGKGNPEVEALSEEATAIFEELWAYRHN"
readout_name = "ELISA_avg"
test_result = 3


Now take the following binder into account.
Please report the recorded ELISA_avg for D domain SEQ ID NO: 706 (designed binder) MGSWDEFDDRLEAIVDRLFALGGSEAELAMFEFEIAQFEHQLQYYKGKGNPEVEALRDEADAIWIELDAYRHN . 5.6
